# assayText: Cytotoxicity against human Huh7.5 cells by MTT assay
# Format: cell-based, Huh-7
testReadout: CC50

[ask] Request the reported CC50 associated with "O=c1oc2ccccc2n1CCCCCCN1C[C@H](O)[C@@H](O)[C@H](O)[C@H]1CO"
[reply] > 500 µM

----------
remaining at 1 h, 2 µM: recorded values
# assayText: Metabolic stability in mouse liver microsomes assessed as compound remaining at 2 uM after 60 mins in presence of NADPH
# Format: ADME, Microsome
# conditionsUsed: read-out: Stability
Please state the figure in %; there is no need to write the unit.

Worked cases, remaining at 1 h, 2 µM given:
>  <smilesRepresentation>
O=C(c1ccccc1)N(CCCCCCN1C[C@H](O)[C@@H](O)[C@H](O)[C@H]1CO)C1CCCCC1

>  <testReadout>
remaining at 1 h, 2 µM

>  <resultValue>
97.4

$$$$
>  <smilesRepresentation>
CC(C)(C)C(=O)N(CCCCCCN1C[C@H](O)[C@@H](O)[C@H](O)[C@H]1CO)c1ccc(F)cc1F

>  <testReadout>
remaining at 1 h, 2 µM

>  <resultValue>
55.3

$$$$
>  <smilesRepresentation>
CC(C)(C)C(=O)N(CCCCCCN1C[C@H](O)[C@@H](O)[C@H](O)[C@H]1CO)C1CCCCC1

>  <testReadout>
remaining at 1 h, 2 µM

>  <resultValue>
58.6

$$$$
>  <smilesRepresentation>
O=c1oc2ccccc2n1CCCCCCN1C[C@H](O)[C@@H](O)[C@H](O)[C@H]1CO

>  <testReadout>
remaining at 1 h, 2 µM

>  <resultValue>
86.7

$$$$
>  <smilesRepresentation>
CS(=O)(=O)N(CCCCCCN1C[C@H](O)[C@@H](O)[C@H](O)[C@H]1CO)C1CCCCC1

>  <testReadout>
remaining at 1 h, 2 µM

>  <resultValue>
86.9

$$$$

[ask] Request the reported remaining at 1 h, 2 µM associated with "O=S(=O)(c1ccccc1)N(CCCCCCN1C[C@H](O)[C@@H](O)[C@H](O)[C@H]1CO)C1CCCCC1"
[reply] 42.8

[ask] Request the reported remaining at 1 h, 2 µM associated with "CC(C)(C)S(=O)(=O)N(CCCCCCN1C[C@H](O)[C@@H](O)[C@H](O)[C@H]1CO)C1CCCCC1"
[reply] 65.4

[ask] Request the reported remaining at 1 h, 2 µM associated with "CC(C)(C)NC(=O)N(CCCCCCN1C[C@H](O)[C@@H](O)[C@H](O)[C@H]1CO)C1CCCCC1"
[reply] 87.6

----------
remaining at 1 h, 2 µM: recorded values
# assayText: Metabolic stability in human liver microsomes assessed as compound remaining at 2 uM after 60 mins in presence of NADPH
# Format: ADME, Microsome
# conditionsUsed: read-out: Stability
For clarity, give the value followed by its unit.

Worked cases, remaining at 1 h, 2 µM given:
>  <smilesRepresentation>
CC(C)(C)S(=O)(=O)N(CCCCCCN1C[C@H](O)[C@@H](O)[C@H](O)[C@H]1CO)C1CCCCC1

>  <testReadout>
remaining at 1 h, 2 µM

>  <resultValue>
50.2%

$$$$
>  <smilesRepresentation>
O=S(=O)(c1ccccc1)N(CCCCCCN1C[C@H](O)[C@@H](O)[C@H](O)[C@H]1CO)C1CCCCC1

>  <testReadout>
remaining at 1 h, 2 µM

>  <resultValue>
13%

$$$$
>  <smilesRepresentation>
CC(C)(C)NC(=O)N(CCCCCCN1C[C@H](O)[C@@H](O)[C@H](O)[C@H]1CO)C1CCCCC1

>  <testReadout>
remaining at 1 h, 2 µM

>  <resultValue>
93.6%

$$$$
>  <smilesRepresentation>
O=C(c1ccccc1)N(CCCCCCN1C[C@H](O)[C@@H](O)[C@H](O)[C@H]1CO)C1CCCCC1

>  <testReadout>
remaining at 1 h, 2 µM

>  <resultValue>
82.6%

$$$$
>  <smilesRepresentation>
CC(C)(C)C(=O)N(CCCCCCN1C[C@H](O)[C@@H](O)[C@H](O)[C@H]1CO)c1ccc(F)cc1F

>  <testReadout>
remaining at 1 h, 2 µM

>  <resultValue>
36.1%

$$$$
>  <smilesRepresentation>
O=c1oc2ccccc2n1CCCCCCN1C[C@H](O)[C@@H](O)[C@H](O)[C@H]1CO

>  <testReadout>
remaining at 1 h, 2 µM

>  <resultValue>
101%

$$$$

[ask] Request the reported remaining at 1 h, 2 µM associated with "CS(=O)(=O)N(CCCCCCN1C[C@H](O)[C@@H](O)[C@H](O)[C@H]1CO)C1CCCCC1"
[reply] 95.5%

[ask] Request the reported remaining at 1 h, 2 µM associated with "CC(C)(C)C(=O)N(CCCCCCN1C[C@H](O)[C@@H](O)[C@H](O)[C@H]1CO)C1CCCCC1"
[reply] 41.6%

----------
remaining at 1 h, 2 µM: recorded values
# assayText: Metabolic stability in rat liver microsomes assessed as compound remaining at 2 uM after 60 mins in presence of NADPH
# Assay type: ADME, Microsome
# conditionsUsed: read-out: Stability
Please state the figure in %; there is no need to write the unit.

Worked cases, remaining at 1 h, 2 µM given:
>  <smilesRepresentation>
CC(C)(C)NC(=O)N(CCCCCCN1C[C@H](O)[C@@H](O)[C@H](O)[C@H]1CO)C1CCCCC1

>  <quantityUnit>
%

>  <remaining at 1 h, 2 µM>
92.8

$$$$
>  <smilesRepresentation>
O=C(c1ccccc1)N(CCCCCCN1C[C@H](O)[C@@H](O)[C@H](O)[C@H]1CO)C1CCCCC1

>  <quantityUnit>
%

>  <remaining at 1 h, 2 µM>
77.4

$$$$

[ask] Request the reported remaining at 1 h, 2 µM associated with "O=c1oc2ccccc2n1CCCCCCN1C[C@H](O)[C@@H](O)[C@H](O)[C@H]1CO"
[reply] 86.9

[ask] Request the reported remaining at 1 h, 2 µM associated with "CS(=O)(=O)N(CCCCCCN1C[C@H](O)[C@@H](O)[C@H](O)[C@H]1CO)C1CCCCC1"
[reply] 65.7

[ask] Request the reported remaining at 1 h, 2 µM associated with "CC(C)(C)S(=O)(=O)N(CCCCCCN1C[C@H](O)[C@@H](O)[C@H](O)[C@H]1CO)C1CCCCC1"
[reply] 12.1

[ask] Request the reported remaining at 1 h, 2 µM associated with "CC(C)(C)C(=O)N(CCCCCCN1C[C@H](O)[C@@H](O)[C@H](O)[C@H]1CO)C1CCCCC1"
[reply] 26.9

[ask] Request the reported remaining at 1 h, 2 µM associated with "O=S(=O)(c1ccccc1)N(CCCCCCN1C[C@H](O)[C@@H](O)[C@H](O)[C@H]1CO)C1CCCCC1"
[reply] 3.83

[ask] Request the reported remaining at 1 h, 2 µM associated with "CC(C)(C)C(=O)N(CCCCCCN1C[C@H](O)[C@@H](O)[C@H](O)[C@H]1CO)c1ccc(F)cc1F"
[reply] 21.6

----------
# assayText: Cytotoxicity against human Huh7.5 cells by MTT assay
# Format: cell-based, Huh-7
testReadout: CC50

>  <smilesRepresentation>
CC(C)(C)S(=O)(=O)N(CCCCCCN1C[C@H](O)[C@@H](O)[C@H](O)[C@H]1CO)C1CCCCC1

>  <CC50>
> 500 µM

$$$$
>  <smilesRepresentation>
O=C(c1cc(F)c(F)cc1F)N(CCCCCCN1C[C@H](O)[C@@H](O)[C@H](O)[C@H]1CO)C1CCCCC1

>  <CC50>
> 500 µM

$$$$
>  <smilesRepresentation>
CC(C)(C)NC(=O)N(CCCCCCN1C[C@H](O)[C@@H](O)[C@H](O)[C@H]1CO)C1CCCCC1

>  <CC50>
> 500 µM

$$$$
>  <smilesRepresentation>
CC(C)OP(=O)(OC(C)C)N(CCCCCCN1C[C@H](O)[C@@H](O)[C@H](O)[C@H]1CO)C1CCCCC1

>  <CC50>
310 µM

$$$$
>  <smilesRepresentation>
O=C(c1ccccc1)N(CCCCCCN1C[C@H](O)[C@@H](O)[C@H](O)[C@H]1CO)C1CCCCC1

>  <CC50>
> 500 µM

$$$$
>  <smilesRepresentation>
CS(=O)(=O)N(CCCCCCN1C[C@H](O)[C@@H](O)[C@H](O)[C@H]1CO)C1CCCCC1

>  <CC50>
> 500 µM

$$$$
>  <smilesRepresentation>
NC(=O)N(CCCCCCN1C[C@H](O)[C@@H](O)[C@H](O)[C@H]1CO)C1CCCCC1

>  <CC50>
> 500 µM

$$$$
>  <smilesRepresentation>
CCCNC(=O)N(CCCCCCN1C[C@H](O)[C@@H](O)[C@H](O)[C@H]1CO)C1CCCCC1

>  <CC50>
> 500 µM

$$$$

Please find the next molecule below.
[ask] Request the reported CC50 associated with "O=S(=O)(c1ccccc1)N(CCCCCCN1C[C@H](O)[C@@H](O)[C@H](O)[C@H]1CO)C1CCCCC1"
[reply] 280 µM
